Test system: CEM cells HIV-1 protection, formazan growth assay
Assay: NCI AIDS Antiviral Assay
Calls of active or inactive are those of the source.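 How the source made its calls: active means compounds giving half or more protection of infected cells from virus-caused growth loss, again on retest; inactive means the rest.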
measure-name: outcome

* CCN1C[C@]2(COC)CCC(=O)C34[C@@H]5C[C@@H]6C(O)[C@@H]5[C@](O)(C[C@@H]6OC)[C@@H](C(OC)[C@@H]32)[C@H]14 (stereo partly specified) | inactive
* CCOC(=O)c1c[nH]c2ccc3c(c2c1=O)S(=O)(=O)CC3 (tested in a mixture with another compound) | inactive
* CN(C)CCN1N=Nc2cccc3cccc1c23 | inactive
* O=C(O)C(=C/C=C/c1ccccc1)C(=O)O | inactive
* O=c1/c(=C\C=C\c2ccccc2)sc2n1CCN=2 | inactive

GET /values?readout=outcome&system=CEM cells HIV-1 protection, formazan growth assay&item= `C=CC[C@]12CC[C@H](O)[C@@]1(C)CCC(=O)/C2=N\N`
inactive
